Assay: Particle size analysis using the Aerosizer/Aerodisperser system
Format: physicochemical
Details: particle size distribution, 70% under
Outcome Measure: SIZE, 70% UNDER (micron)

>>> numeric_readout("CC(C)Cc1ccc(C(C)C(=O)O)cc1 (stereo not shown) [Example 2, ibuprofen]")
19.10
>>> numeric_readout("CC(C)Cc1ccc(C(C)C(=O)O)cc1 (stereo not shown) [Example 1b, ibuprofen]")
18.94
>>> numeric_readout("CC(C)Cc1ccc(C(C)C(=O)O)cc1 (stereo not shown) [Example 1c, ibuprofen]")
11.28
>>> numeric_readout("CC(C)Cc1ccc(C(C)C(=O)O)cc1 (stereo not shown) [Example 1a, ibuprofen]")
28.83

###

Experiment: Particle size analysis using the Aerosizer/Aerodisperser system
Format: physicochemical
Details: particle size distribution, 85% under
Method: Particle size analysis of the product was carried out using the Aerosizer/Aerodisperser system (API, USA).
Outcome Measure: SIZE, 85% UNDER (micron)

>>> numeric_readout("CC(C)Cc1ccc(C(C)C(=O)O)cc1 (stereo not shown) [Example 1c, ibuprofen]")
13.88
>>> numeric_readout("CC(C)Cc1ccc(C(C)C(=O)O)cc1 (stereo not shown) [Example 1a, ibuprofen]")
33.44
>>> numeric_readout("CC(C)Cc1ccc(C(C)C(=O)O)cc1 (stereo not shown) [Example 2, ibuprofen]")
22.79
>>> numeric_readout("CC(C)Cc1ccc(C(C)C(=O)O)cc1 (stereo not shown) [Example 1b, ibuprofen]")
22.25

###

Test: Particle size analysis using the Aerosizer/Aerodisperser system
Format: physicochemical
Conditions: particle size distribution, 50% under
Outcome Measure: SIZE, 50% UNDER (micron)

>>> numeric_readout("CC(C)Cc1ccc(C(C)C(=O)O)cc1 (stereo not shown) [Example 1c, ibuprofen]")
8.572
>>> numeric_readout("CC(C)Cc1ccc(C(C)C(=O)O)cc1 (stereo not shown) [Example 1a, ibuprofen]")
23.58
>>> numeric_readout("CC(C)Cc1ccc(C(C)C(=O)O)cc1 (stereo not shown) [Example 1b, ibuprofen]")
15.30
>>> numeric_readout("CC(C)Cc1ccc(C(C)C(=O)O)cc1 (stereo not shown) [Example 2, ibuprofen]")
15.17

###

Reported SIZE, 45% UNDER values are given for each entry in this list.
Assay: Particle size analysis using the Aerosizer/Aerodisperser system
Type: physicochemical
Settings: particle size distribution, 45% under
Outcome Measure: SIZE, 45% UNDER (micron)

>>> numeric_readout("CC(C)Cc1ccc(C(C)C(=O)O)cc1 (stereo not shown) [Example 1c, ibuprofen]")
8.004
>>> numeric_readout("CC(C)Cc1ccc(C(C)C(=O)O)cc1 (stereo not shown) [Example 2, ibuprofen]")
14.26
>>> numeric_readout("CC(C)Cc1ccc(C(C)C(=O)O)cc1 (stereo not shown) [Example 1a, ibuprofen]")
22.30
>>> numeric_readout("CC(C)Cc1ccc(C(C)C(=O)O)cc1 (stereo not shown) [Example 1b, ibuprofen]")
14.43

###

Experiment: Particle size analysis using the Aerosizer/Aerodisperser system
Assay type: physicochemical
Conditions: particle size distribution, 80% under
Reported SIZE, 80% UNDER values are given for each entry in this list.
Outcome Measure: SIZE, 80% UNDER (micron)

>>> numeric_readout("CC(C)Cc1ccc(C(C)C(=O)O)cc1 (stereo not shown) [Example 1c, ibuprofen]")
12.92
>>> numeric_readout("CC(C)Cc1ccc(C(C)C(=O)O)cc1 (stereo not shown) [Example 1b, ibuprofen]")
21.05
>>> numeric_readout("CC(C)Cc1ccc(C(C)C(=O)O)cc1 (stereo not shown) [Example 1a, ibuprofen]")
31.76
>>> numeric_readout("CC(C)Cc1ccc(C(C)C(=O)O)cc1 (stereo not shown) [Example 2, ibuprofen]")
21.41
